{"compound": "NC(=S)Nc1ccc(O)cc1", "melting point / °C": 214}
{"compound": "c1ccc2cc(P(c3ccc4ccccc4c3)c3ccc4ccccc4c3)ccc2c1", "melting point / °C": 228}
{"compound": "O=C1CC2CCC1C2 (configuration not stated)", "melting point / °C": 95}
{"compound": "O=C(c1ccncc1)c1ccc(Cl)cc1", "melting point / °C": 108}
{"compound": "CCC(C)Nc1ccc(NC(C)CC)cc1 (configuration not stated)", "melting point / °C": 18}
{"compound": "COc1cc(CCn2cccc2C(=O)O)cc(OC)c1OC", "melting point / °C": 132}
{"compound": "OC1Cc2cccc3cccc1c23 (configuration not stated)", "melting point / °C": 148}
{"compound": "Nc1nc2cc3nc(N)c(-c4ccccc4)cc3cc2cc1-c1ccccc1", "melting point / °C": 301}
